- protocol.notes: Qualitative solubility screen of Tabernanthalog sorbate salt (Example 10, Experiment 2)
- Assay type: physicochemical
- measurement.conditions: Tabernanthalog sorbate salt (input Form A); product crystallised in solubility screen, one solvent per sample; centrifuged wet pellet

{"molecule": "CC=CC=CC(=O)O.COc1ccc2c3c([nH]c2c1)CCN(C)CC3 [Experiment 2-Sample I1]", "Assignment (wet pellet XRPD)": "Oiled"}
{"molecule": "COc1ccc2c3c([nH]c2c1)CCN(C)CC3 [Experiment 2-Sample D1]", "Assignment (wet pellet XRPD)": "Form A"}
{"molecule": "CC=CC=CC(=O)O.COc1ccc2c3c([nH]c2c1)CCN(C)CC3 [Experiment 2-Sample H1]", "Assignment (wet pellet XRPD)": "Form A + new shoulders"}
{"molecule": "CC=CC=CC(=O)O.COc1ccc2c3c([nH]c2c1)CCN(C)CC3 [Experiment 2-Sample Q1]", "Assignment (wet pellet XRPD)": "Form A + new shoulders"}
{"molecule": "CC=CC=CC(=O)O.COc1ccc2c3c([nH]c2c1)CCN(C)CC3 [Experiment 2-Sample P1]", "Assignment (wet pellet XRPD)": "Form A"}
{"molecule": "COc1ccc2c3c([nH]c2c1)CCN(C)CC3.O=C(O)/C=C/C(=O)O [Experiment 2-Sample C1]", "Assignment (wet pellet XRPD)": "Form A"}
{"molecule": "CC=CC=CC(=O)O.COc1ccc2c3c([nH]c2c1)CCN(C)CC3 [Experiment 2-Sample G1]", "Assignment (wet pellet XRPD)": "Form A"}
{"molecule": "CC=CC=CC(=O)O.COc1ccc2c3c([nH]c2c1)CCN(C)CC3 [Experiment 2-Sample R1]", "Assignment (wet pellet XRPD)": "Form A"}
{"molecule": "CC=CC=CC(=O)O.COc1ccc2c3c([nH]c2c1)CCN(C)CC3 [Experiment 2-Sample L1]", "Assignment (wet pellet XRPD)": "Form A"}

---

- protocol.notes: Examination of variability of fusion temperature of sorbate Form A (DSC)
- Format: physicochemical
- measurement.conditions: DSC 25 to 220C at 10° C. min−1; tabernanthalog sorbate Form A samples
readout.label: melt onset (°C)

{"compound": "C/C=C/C=C/C(=O)O.COc1ccc2c3c([nH]c2c1)CCN(C)CC3 [Pattern A1270-20-V2]", "unit.abbrev": "°C", "result.number": 143.89}
{"compound": "C/C=C/C=C/C(=O)O.COc1ccc2c3c([nH]c2c1)CCN(C)CC3 [Experiment 6-Sample D1]", "unit.abbrev": "°C", "result.number": 144.03}
{"compound": "C/C=C/C=C/C(=O)O.COc1ccc2c3c([nH]c2c1)CCN(C)CC3 [Experiment 7-Sample A neat]", "unit.abbrev": "°C", "result.number": 144.39}
{"compound": "C/C=C/C=C/C(=O)O.COc1ccc2c3c([nH]c2c1)CCN(C)CC3 [Experiment 6-Sample C1]", "unit.abbrev": "°C", "result.number": 144.66}
{"compound": "C/C=C/C=C/C(=O)O.COc1ccc2c3c([nH]c2c1)CCN(C)CC3 [Experiment 6-Sample E1]", "unit.abbrev": "°C", "result.number": 145.00}

---

- protocol.notes: Solubility determinations in SIF buffers FaSSIF, FeSSIF, FaSSGF (Example 8, Experiment 5)
- measurement.conditions: 37 °C, pH 5, fessif, thermodynamic from solid

{"compound": "COc1ccc2c3c([nH]c2c1)CCN(C)CC3 [Tabernanthalog• Sorbate]", "unit.abbrev": "mg/mL", "solubility at 1 h": 27.2}

---

- protocol.notes: Heat-up/cool down (HUCD) crystallization of the monofumarate salt (Experiment Reference 11)
- Assay type: physicochemical
- measurement.conditions: form of product from HUCD crystallization of tabernanthalog fumarate Sample Reference 1 (Pattern #1); solvents per sample as in E1
readout.label: XRPD (oven dried)

{"compound": "COc1ccc2c3c([nH]c2c1)CCN(C)CC3.O=C(O)/C=C/C(=O)O [Sample 11-C]", "result": "Pattern #6a"}
{"compound": "COc1ccc2c3c([nH]c2c1)CCN(C)CC3.O=C(O)/C=C/C(=O)O [Sample 11-E]", "result": "Pattern #6b"}
{"compound": "COc1ccc2c3c([nH]c2c1)CCN(C)CC3.O=C(O)/C=C/C(=O)O [Sample 11-Q]", "result": "Pattern #5"}
{"compound": "COc1ccc2c3c([nH]c2c1)CCN(C)CC3.O=C(O)/C=C/C(=O)O [Sample 11-K]", "result": "Pattern #5"}
{"compound": "COc1ccc2c3c([nH]c2c1)CCN(C)CC3.O=C(O)/C=C/C(=O)O [Sample 11-J]", "result": "Pattern #6a"}
{"compound": "COc1ccc2c3c([nH]c2c1)CCN(C)CC3.O=C(O)/C=C/C(=O)O [Sample 11-D]", "result": "Pattern #5"}
{"compound": "COc1ccc2c3c([nH]c2c1)CCN(C)CC3.O=C(O)/C=C/C(=O)O [Sample 11-B]", "result": "Pattern #6a"}
{"compound": "COc1ccc2c3c([nH]c2c1)CCN(C)CC3.O=C(O)/C=C/C(=O)O [Sample 11-F]", "result": "Pattern #6a"}
{"compound": "COc1ccc2c3c([nH]c2c1)CCN(C)CC3.O=C(O)/C=C/C(=O)O [Sample 11-1]", "result": "Pattern #6b"}
{"compound": "COc1ccc2c3c([nH]c2c1)CCN(C)CC3.O=C(O)/C=C/C(=O)O [Sample 11-M]", "result": "Pattern #6b"}
{"compound": "COc1ccc2c3c([nH]c2c1)CCN(C)CC3.O=C(O)/C=C/C(=O)O [Sample 11-P]", "result": "Pattern #5"}
{"compound": "COc1ccc2c3c([nH]c2c1)CCN(C)CC3.O=C(O)/C=C/C(=O)O [Sample 11-A]", "result": "Pattern #6a"}

---

- protocol.notes: Heat-up/cool down (HUCD) crystallization of the monofumarate salt (Experiment Reference 11)
- Format: physicochemical
- measurement.conditions: input tabernanthalog fumarate Sample Reference 1 (Pattern #1); Solvent A/B: 11-A acetone/water; 11-B acetonitrile/water; 11-C butanol/water; 11-D tBME/methanol; 11-E DCM/methanol; 11-F ethanol/water; 11-G methyl acetate/water/methanol; 11-H 2-propanol/water; 11-1 methanol; 11-J MEK/water; 11-K 2-MeTHF/methanol; 11-L THF/water; 11-M toluene/methanol; 11-N water; 11-O dioxane/water; 11-P CPME/methan
- Description: Separate portions of the tabernanthalog monofumarate salt (Pattern #1, Sample Reference 1, ca 75 mg, 1.0 wt.) were charged to separate vessels. […] After this time the products were isolated by centrifugation, washed with recycled maturation solvent, dried under reduced pressure at 40° C. and analyzed by XRPD for evidence of alternative crystalline forms.

{"molecule": "COc1ccc2c3c([nH]c2c1)CCN(C)CC3.O=C(O)/C=C/C(=O)O [Sample 11-K]", "Observations (t = 0 @ T = 20° C.)": "suspension"}
{"molecule": "COc1ccc2c3c([nH]c2c1)CCN(C)CC3.O=C(O)/C=C/C(=O)O [Sample 11-E]", "Observations (t = 0 @ T = 20° C.)": "suspension"}
{"molecule": "COc1ccc2c3c([nH]c2c1)CCN(C)CC3.O=C(O)/C=C/C(=O)O [Sample 11-1]", "Observations (t = 0 @ T = 20° C.)": "suspension"}
{"molecule": "COc1ccc2c3c([nH]c2c1)CCN(C)CC3.O=C(O)/C=C/C(=O)O [Sample 11-N]", "Observations (t = 0 @ T = 20° C.)": "suspension"}
{"molecule": "COc1ccc2c3c([nH]c2c1)CCN(C)CC3.O=C(O)/C=C/C(=O)O [Sample 11-D]", "Observations (t = 0 @ T = 20° C.)": "cloudy"}
{"molecule": "COc1ccc2c3c([nH]c2c1)CCN(C)CC3.O=C(O)/C=C/C(=O)O [Sample 11-O]", "Observations (t = 0 @ T = 20° C.)": "suspension"}
{"molecule": "COc1ccc2c3c([nH]c2c1)CCN(C)CC3.O=C(O)/C=C/C(=O)O [Sample 11-L]", "Observations (t = 0 @ T = 20° C.)": "solution"}
{"molecule": "COc1ccc2c3c([nH]c2c1)CCN(C)CC3.O=C(O)/C=C/C(=O)O [Sample 11-A]", "Observations (t = 0 @ T = 20° C.)": "suspension"}
{"molecule": "COc1ccc2c3c([nH]c2c1)CCN(C)CC3.O=C(O)/C=C/C(=O)O [Sample 11-J]", "Observations (t = 0 @ T = 20° C.)": "suspension"}
{"molecule": "COc1ccc2c3c([nH]c2c1)CCN(C)CC3.O=C(O)/C=C/C(=O)O [Sample 11-C]", "Observations (t = 0 @ T = 20° C.)": "suspension"}
{"molecule": "COc1ccc2c3c([nH]c2c1)CCN(C)CC3.O=C(O)/C=C/C(=O)O [Sample 11-F]", "Observations (t = 0 @ T = 20° C.)": "suspension"}
{"molecule": "COc1ccc2c3c([nH]c2c1)CCN(C)CC3.O=C(O)/C=C/C(=O)O [Sample 11-G]", "Observations (t = 0 @ T = 20° C.)": "suspension"}
{"molecule": "COc1ccc2c3c([nH]c2c1)CCN(C)CC3.O=C(O)/C=C/C(=O)O [Sample 11-M]", "Observations (t = 0 @ T = 20° C.)": "suspension"}
{"molecule": "COc1ccc2c3c([nH]c2c1)CCN(C)CC3.O=C(O)/C=C/C(=O)O [Sample 11-B]", "Observations (t = 0 @ T = 20° C.)": "cloudy"}
{"molecule": "COc1ccc2c3c([nH]c2c1)CCN(C)CC3.O=C(O)/C=C/C(=O)O [Sample 11-P]", "Observations (t = 0 @ T = 20° C.)": "suspension"}
{"molecule": "COc1ccc2c3c([nH]c2c1)CCN(C)CC3.O=C(O)/C=C/C(=O)O [Sample 11-H]", "Observations (t = 0 @ T = 20° C.)": "cloudy"}
{"molecule": "COc1ccc2c3c([nH]c2c1)CCN(C)CC3.O=C(O)/C=C/C(=O)O [Sample 11-Q]", "Observations (t = 0 @ T = 20° C.)": "solution"}
